- Measurement Target: TLR9 (Homo sapiens, UniProt Q9NR96)
- Construct: expressed in transfected cells; host or cells: NIH 3T3 fibroblasts (mouse), stably transfected, NF-kB driven SEAP reporter
- Experimental Protocol: cell-based reporter assay (NIH 3T3 reporter cell line expressing TLR9, NF-kB driven SEAP, stimulated with CpG ODN 2216)
- Particulars: in the presence of 5 μM of the ODN 2216 agonist; read-out: IC50 in

Smiles Entry: COc1ccc(-c2nn(-c3ccccc3)cc2CNCc2ccccc2CN2CCOCC2)cc1OC
IC50 [nM]: 7510
--
Smiles Entry: COc1ccc(-c2nn(-c3ccccc3)cc2CNCc2ccccc2CN2CCOCC2)cc1
IC50 [nM]: 3140
--
Smiles Entry: COc1ccc(CN2CCN(Cc3c(-c4ccccc4)nc4ccccn34)CC2)cc1OC
IC50 [nM]: 6320
--
Smiles Entry: c1ccc(-n2cc(CNCCN3CCCC3)c(-c3ccc4c(c3)OCCO4)n2)cc1
IC50 [nM]: 3160
--
Smiles Entry: COc1cc(CNC2CCN(Cc3ccccc3)CC2)ccc1OCc1c(C)noc1C
IC50 [nM]: 1620
--
Smiles Entry: c1ccc(Cn2cc(CNCc3ccc(CN4CCOCC4)cc3)c(-c3cccnc3)n2)cc1
IC50 [nM]: 7560
--
Smiles Entry: COc1cc(CN2CCN(CCN3CCCC3)CC2)ccc1OCc1ccc(Cl)cc1
IC50 [nM]: 962
--
Smiles Entry: CCN1CCC(NCc2ccc(-n3cnc4ccccc43)cc2)CC1
IC50 [nM]: 1780
--
Smiles Entry: CC(C)(c1ccccc1)c1ccc(OCCCNCCN2CCOCC2)cc1
IC50 [nM]: 6430
--
Smiles Entry: Clc1ccc(CN2CCC(NCc3ccc(-n4ccnc4)cc3)CC2)cc1
IC50 [nM]: 896
--
Smiles Entry: COc1ccc(CNc2nc3ccccc3n2CCN2CCCCC2)cc1OC
IC50 [nM]: 6780
--
Smiles Entry: COc1cc2nc(-c3ccccc3)nc(N3CCN(CCN4CCCC4)CC3)c2cc1OC
IC50 [nM]: 53.6
--
Smiles Entry: CCCN1CCC(NCc2cn(-c3ccccc3)nc2-c2ccc3c(c2)OCCO3)CC1
IC50 [nM]: 1870
--
Smiles Entry: CCN1CCC(NCc2cn(-c3ccccc3)nc2-c2ccc3c(c2)OCCO3)CC1
IC50 [nM]: 1440
--
Smiles Entry: c1ccc(CN2CCN(c3ccnc(N4CCN(Cc5ccccc5)CC4)n3)CC2)cc1
IC50 [nM]: 1600
--
Smiles Entry: CN(C)CCCNCc1cn(-c2ccccc2)nc1-c1ccc2c(c1)OCCO2
IC50 [nM]: 201
--
Smiles Entry: Clc1ccc(-c2nn(Cc3ccccc3)cc2CN2CCN(CCN3CCCC3)CC2)cc1
IC50 [nM]: 3820
--
Smiles Entry: c1ccc(-n2cc(CNCCCN3CCOCC3)c(-c3cc4ccccc4o3)n2)cc1
IC50 [nM]: 815

---

- Measurement Target: TLR9 (Homo sapiens, UniProt Q9NR96)
- Construct: expressed in transfected cells; host or cells: NIH 3T3 fibroblasts (mouse), stably transfected, NF-kB driven SEAP reporter
- Experimental Protocol: cell-based reporter assay (NIH 3T3 reporter cell line expressing TLR9, NF-kB driven SEAP, stimulated with CpG ODN 2216)
- Particulars: Table 5; first 30 candidates; ODN 2216 agonist; n≥3; read-out: IC50 in

Molecule: COc1cccc(OCCCCn2cnc3ccccc32)c1
Unit Spec: µM
IC50: 13.3
--
Molecule: COc1ccc(OCCOc2cccc3cccnc23)cc1
Unit Spec: µM
IC50: 650
--
Molecule: COc1ccccc1N1CCN(c2ccc3ccccc3n2)CC1
Unit Spec: µM
IC50: 1160
--
Molecule: Cc1cc(-c2ccc(-n3ccnc3)cc2)nc2ccccc12 [T5803292, n1c2c(cccc2)c(cc1-c1ccc(-n2ccnc2)cc1)C]
Unit Spec: µM
IC50: 4270

---

- Measurement Target: TLR9 (Homo sapiens)
- Construct: expressed in transfected cells; host or cells: NIH 3T3 fibroblasts (mouse), stably transfected, NF-kB driven SEAP reporter
- Experimental Protocol: cell-based reporter assay (NIH 3T3 reporter cell line expressing TLR9, NF-kB driven SEAP, stimulated with CpG ODN 2216)
- Particulars: Table 5; first 30 candidates; ODN 2216 agonist; n≥3; read-out: IC50 in
Threshold 900 µM: IC50 strictly smaller gives criterion met, otherwise criterion not met.

Molecule: COc1cc(/C=C/c2ccc3ccccc3n2)cc(OC)c1
Cat: criterion met
//
Molecule: COc1ccc(/C=N/c2ccc3nc(C)ccc3c2)cc1
Cat: criterion met
//
Molecule: COc1ccc(-n2c(-c3ccncc3)nc3ccccc32)cc1 [T5771455, O(C)c1ccc(-n2c3c(nc2-c2ccncc2)cccc3)cc1]
Cat: criterion met
//
Molecule: C(=C\c1ccc2ccccc2n1)/c1ccc(N2CCOCC2)cc1
Cat: criterion not met
//
Molecule: COc1ccc(/N=C/c2ccc3ncccc3c2)cc1
Cat: criterion met
//
Molecule: COc1ccc(CCN(C)c2ncnc3c2oc2ccccc23)cc1OC
Cat: criterion met
//
Molecule: COc1ccc(/C=C/c2ccc3ccccc3n2)cc1OC
Cat: criterion met
//
Molecule: COc1ccc(CCNc2ncnc3c2oc2ccccc23)cc1OC
Cat: criterion met
//
Molecule: c1ccc(N2CCN(c3ccc4ccccc4n3)CC2)cc1
Cat: criterion met
//
Molecule: CCOc1ccccc1OCCOc1cccc2cccnc12
Cat: criterion not met
//
Molecule: c1ccc(OCCn2c(-c3ccco3)nc3ccccc32)cc1
Cat: criterion met
//
Molecule: COCCNc1ncnc2c1c(-c1ccccc1)cn2-c1ccc(OC)cc1
Cat: criterion not met
//
Molecule: COc1ccc2c(-c3ccccc3)cc(N3CCOCC3)nc2c1
Cat: criterion met
//
Molecule: CN(C)c1ccc(/C=C/c2ccc3ccccc3n2)cc1
Cat: criterion met
//
Molecule: COc1ccc(/C=C/c2ccc3ccccc3n2)c(OC)c1
Cat: criterion met
//
Molecule: c1ccc2c(NCCNc3ncnc4ccccc34)cccc2c1
Cat: criterion met
//
Molecule: C(=C\c1ccc2ccccc2n1)/c1ccc(-n2ccnc2)cc1 [T5500062, n1c2c(ccc1\C═C\c1ccc(-n3ccnc3)cc1)cccc2]
Cat: criterion met
//
Molecule: COc1ccc2nc3c(nc2c1)-c1cccc2cccc-3c12 [T0504-1221, O(C)c1cc2nc3-c4c5c(-c3nc2cc1)cccc5ccc4]
Cat: criterion met
//
Molecule: c1ccc(-c2cn3c(n2)CCc2ccc4cccnc4c2-3)cc1
Cat: criterion not met
//
Molecule: c1ccc(-c2cc(-c3ccncc3)nc3ccccc23)cc1
Cat: criterion met
//
Molecule: c1ccc(-c2nc3ccccc3nc2-c2ccccc2)cc1
Cat: criterion not met

---

- Measurement Target: TLR9 (Homo sapiens, UniProt Q9NR96)
- Construct: expressed in transfected cells; host or cells: NIH 3T3 fibroblasts (mouse), stably transfected, NF-kB driven SEAP reporter
- Sequence (Q9NR96 26-1032): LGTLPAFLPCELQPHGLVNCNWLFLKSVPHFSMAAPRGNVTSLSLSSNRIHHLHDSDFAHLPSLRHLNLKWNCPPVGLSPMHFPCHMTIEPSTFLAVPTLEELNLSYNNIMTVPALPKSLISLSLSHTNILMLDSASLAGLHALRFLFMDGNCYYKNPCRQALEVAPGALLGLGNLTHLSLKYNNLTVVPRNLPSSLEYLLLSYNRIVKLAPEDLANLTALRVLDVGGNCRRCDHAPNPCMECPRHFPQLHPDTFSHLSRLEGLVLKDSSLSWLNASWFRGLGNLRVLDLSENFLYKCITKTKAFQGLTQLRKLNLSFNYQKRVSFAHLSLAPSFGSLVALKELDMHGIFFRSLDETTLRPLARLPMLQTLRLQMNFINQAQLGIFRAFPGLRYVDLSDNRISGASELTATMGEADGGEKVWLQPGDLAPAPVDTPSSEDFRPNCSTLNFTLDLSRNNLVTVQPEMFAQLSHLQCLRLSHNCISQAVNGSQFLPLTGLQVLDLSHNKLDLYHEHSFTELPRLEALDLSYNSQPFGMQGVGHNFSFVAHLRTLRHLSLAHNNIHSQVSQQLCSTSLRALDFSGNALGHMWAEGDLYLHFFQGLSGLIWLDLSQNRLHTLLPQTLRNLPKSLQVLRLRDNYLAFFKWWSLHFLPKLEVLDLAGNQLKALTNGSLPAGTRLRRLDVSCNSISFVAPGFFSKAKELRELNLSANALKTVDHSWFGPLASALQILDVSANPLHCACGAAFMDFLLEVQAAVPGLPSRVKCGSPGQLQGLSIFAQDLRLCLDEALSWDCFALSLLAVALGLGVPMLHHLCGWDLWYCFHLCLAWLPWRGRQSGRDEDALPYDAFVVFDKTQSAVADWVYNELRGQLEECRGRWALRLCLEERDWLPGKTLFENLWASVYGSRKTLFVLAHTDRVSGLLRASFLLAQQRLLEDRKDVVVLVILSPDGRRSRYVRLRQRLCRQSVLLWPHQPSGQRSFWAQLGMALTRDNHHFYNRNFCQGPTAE
- Experimental Protocol: cell-based reporter assay (NIH 3T3 reporter cell line expressing TLR9, NF-kB driven SEAP, stimulated with CpG ODN 2216)
- Particulars: FIG. 3; 5 μM ODN 2216, 0.12 μM-7.8 μM of antagonist; read-out: IC50 value

Smiles Entry: c1ccc(-n2cc(CNCCCN3CCOCC3)c(-c3cc4ccccc4o3)n2)cc1
Measurement Target: TLR9 (Homo sapiens, UniProt Q9NR96)
IC50 (µM): 0.8
